Collected IC50 or % Inhibition Factor Xa (30 µM) values appear next to each entry.
molecular target: Human factor Xa (Homo sapiens); construct: leads from XII to XIIa to XIa to IXa and to the conversion of X to Xa; purchased Enzyme Research Laboratories, South Bend IN; assay: Xa Assay; assay type: biochemical; conditions: % inhibition at 30 µM (cells with % or %@30, bare 0)
Sequence (P00742 235-488 limits assumed): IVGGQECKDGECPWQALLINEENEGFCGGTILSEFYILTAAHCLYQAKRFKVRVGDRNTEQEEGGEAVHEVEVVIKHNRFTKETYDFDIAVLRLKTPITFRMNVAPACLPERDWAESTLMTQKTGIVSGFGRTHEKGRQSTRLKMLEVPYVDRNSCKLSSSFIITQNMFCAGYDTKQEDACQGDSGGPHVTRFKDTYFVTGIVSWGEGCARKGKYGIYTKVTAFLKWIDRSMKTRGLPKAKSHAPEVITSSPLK
Sequence (P00742 41-179 limits assumed): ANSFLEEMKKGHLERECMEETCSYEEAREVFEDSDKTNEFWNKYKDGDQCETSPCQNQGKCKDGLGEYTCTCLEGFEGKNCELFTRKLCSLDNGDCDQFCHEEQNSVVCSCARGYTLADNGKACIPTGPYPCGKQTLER
Reply with just the number (in %).

// CCc1c(Cl)nc(NCCc2ccncc2)c(=O)n1CC(=O)NCc1ccc(C(=N)N)cc1 : IC50 or % Inhibition Factor Xa (30 µM) value = 0

// COc1cccc(CNc2nc(Cl)c(-c3ccccc3)n(CC(=O)NCc3ccc(C(=N)N)cc3)c2=O)c1OC : IC50 or % Inhibition Factor Xa (30 µM) value = 3

// N=C(N)c1ccc(CNC(=O)Cn2c(-c3ccccc3)c(Cl)nc(NC3CCCCCC3)c2=O)cc1 [1512-16] : IC50 or % Inhibition Factor Xa (30 µM) value = 10

// N=C(N)c1ccc(CNC(=O)Cn2c(-c3ccccc3)c(Cl)nc(NCCCCc3ccccc3)c2=O)cc1 : IC50 or % Inhibition Factor Xa (30 µM) value = 21

// CC(C)Nc1nc(Cl)c(-c2cccc([N+](=O)[O-])c2)n(CC(=O)NCc2ccc(C(N)=NO)cc2)c1=O : IC50 or % Inhibition Factor Xa (30 µM) value = 0

// N=C(N)c1ccc(CNC(=O)Cn2c(-c3ccc4c(c3)OCO4)c(Cl)nc(NCCN3CCOCC3)c2=O)cc1 : IC50 or % Inhibition Factor Xa (30 µM) value = 13

// COc1ccc(-c2c(Cl)nc(NCCc3ccc(Cl)cc3)c(=O)n2CC(=O)NCc2ccc(C(=N)N)cc2)cc1 : IC50 or % Inhibition Factor Xa (30 µM) value = 24

// N=C(N)c1ccc(CNC(=O)Cn2c(-c3ccccc3)c(Cl)nc(NC3Cc4ccccc4C3)c2=O)cc1 : IC50 or % Inhibition Factor Xa (30 µM) value = 1

// N=C(N)c1ccc(CNC(=O)Cn2c(-c3ccccc3)c(Cl)nc(NCc3cc(F)c(F)c(F)c3)c2=O)cc1 : IC50 or % Inhibition Factor Xa (30 µM) value = 5

// N=C(N)c1ccc(CNC(=O)Cn2c(-c3cccc(Cl)c3)c(Cl)nc(NCCc3ccccc3)c2=O)cc1 : IC50 or % Inhibition Factor Xa (30 µM) value = 17

// CCc1c(Cl)nc(NCCc2cccc(Cl)c2)c(=O)n1CC(=O)NCc1ccc(C(=N)N)cc1 : IC50 or % Inhibition Factor Xa (30 µM) value = 0

// CCc1c(Cl)nc(NCCc2ccc(Cl)cc2)c(=O)n1CC(=O)NCc1ccc(C(=N)N)cc1 : IC50 or % Inhibition Factor Xa (30 µM) value = 0

// N=C(N)c1ccc(CNC(=O)Cn2c(-c3ccccc3)c(Cl)nc(NCC3COc4ccccc4O3)c2=O)cc1 (stereo not shown) : IC50 or % Inhibition Factor Xa (30 µM) value = 4

// CCCNc1nc(Cl)c(-c2ccccc2)n(CC(=O)NCc2ccc(C(=N)N)cc2)c1=O : IC50 or % Inhibition Factor Xa (30 µM) value = 0

// N=C(N)c1ccc(CNC(=O)Cn2c(-c3cccc(Cl)c3)c(Cl)nc(NCCc3cccc(Cl)c3)c2=O)cc1 : IC50 or % Inhibition Factor Xa (30 µM) value = 41

// N=C(N)c1ccc(CNC(=O)Cn2c(-c3c(Cl)cccc3Cl)c(Cl)nc(NCCc3ccccc3)c2=O)cc1 : IC50 or % Inhibition Factor Xa (30 µM) value = 0

// COc1ccc(-c2c(Cl)nc(NCc3ccccc3)c(=O)n2CC(=O)NCc2ccc(C(=N)N)cc2)cc1 : IC50 or % Inhibition Factor Xa (30 µM) value = 22

// C[C@H](C(=O)NCc1ccc(C(=N)N)cc1)n1c(-c2ccccc2)c(Cl)nc(NCc2ccccc2)c1=O : IC50 or % Inhibition Factor Xa (30 µM) value = 0

// CC1CCCC(Nc2nc(Cl)c(-c3ccccc3)n(CC(=O)NCc3ccc(C(=N)N)cc3)c2=O)C1C (stereo not shown) : IC50 or % Inhibition Factor Xa (30 µM) value = 6
